The measured values listed here are drawn from patent US20200270309A1.

Tested on: IL-1β production by mouse peritoneal macrophages
assayOverview: IL-1β production by mouse peritoneal macrophages (ELISA)
Assay type: cell-based
studyConditions: dose 0.2 μM; mouse peritoneal macrophages, 48 h, ELISA
Peptide text beside a SMILES is read from it. * marks the point of attachment. X66 = O=C1C=CC(=O)N1c1cccc(CCCCCCCC(=O)*)c1; X71 = O=C1C=CC(=O)N1c1cccc(CCCCCC(=O)*)c1

compound: C[C@H](NC(=O)CNC(=O)[C@H](CCCNC(=N)N)NC(=O)CCCCCCCc1cccc(N2C(=O)C=CC2=O)c1)C(=O)N[C@@H](CC(=O)O)C(=O)N[C@@H](CCCNC(=N)N)C(=O)N[C@@H](C)C(=O)NCC(=O)NCC(=O)NCC(=O)NCC(=O)N[C@@H](CCCNC(=N)N)C(=O)NCC(=O)N[C@@H](CC(=O)O)C(=O)O [X31] (X66-RGADRAGGGGRGD-OH)
studyTarget: IL-1β production by mouse peritoneal macrophages
IL-1β, pg/mL: 723.57
//
compound: C[C@H](NC(=O)CNC(=O)[C@H](CCCNC(=N)N)NC(=O)CCCCCc1cccc(N2C(=O)C=CC2=O)c1)C(=O)N[C@@H](CC(=O)O)C(=O)N[C@@H](CCCNC(=N)N)C(=O)N[C@@H](C)C(=O)NCC(=O)NCC(=O)NCC(=O)NCC(=O)N[C@@H](CCCNC(=N)N)C(=O)NCC(=O)N[C@@H](CC(=O)O)C(=O)O [X29] (X71-RGADRAGGGGRGD-OH)
studyTarget: IL-1β production by mouse peritoneal macrophages
IL-1β, pg/mL: 557.81
